target: recombinant rat L-type calcium channel (LTCC) subunits (α1c, α2δ, and β1) (Rattus norvegicus, UniProt P22002); experiment: FLIPR calcium mobilization assay for L-type calcium channel; conditions: calcium mobilization in vitro assay; HEK293 cells expressing rat LTCC
Sequence (P22002 whole entry): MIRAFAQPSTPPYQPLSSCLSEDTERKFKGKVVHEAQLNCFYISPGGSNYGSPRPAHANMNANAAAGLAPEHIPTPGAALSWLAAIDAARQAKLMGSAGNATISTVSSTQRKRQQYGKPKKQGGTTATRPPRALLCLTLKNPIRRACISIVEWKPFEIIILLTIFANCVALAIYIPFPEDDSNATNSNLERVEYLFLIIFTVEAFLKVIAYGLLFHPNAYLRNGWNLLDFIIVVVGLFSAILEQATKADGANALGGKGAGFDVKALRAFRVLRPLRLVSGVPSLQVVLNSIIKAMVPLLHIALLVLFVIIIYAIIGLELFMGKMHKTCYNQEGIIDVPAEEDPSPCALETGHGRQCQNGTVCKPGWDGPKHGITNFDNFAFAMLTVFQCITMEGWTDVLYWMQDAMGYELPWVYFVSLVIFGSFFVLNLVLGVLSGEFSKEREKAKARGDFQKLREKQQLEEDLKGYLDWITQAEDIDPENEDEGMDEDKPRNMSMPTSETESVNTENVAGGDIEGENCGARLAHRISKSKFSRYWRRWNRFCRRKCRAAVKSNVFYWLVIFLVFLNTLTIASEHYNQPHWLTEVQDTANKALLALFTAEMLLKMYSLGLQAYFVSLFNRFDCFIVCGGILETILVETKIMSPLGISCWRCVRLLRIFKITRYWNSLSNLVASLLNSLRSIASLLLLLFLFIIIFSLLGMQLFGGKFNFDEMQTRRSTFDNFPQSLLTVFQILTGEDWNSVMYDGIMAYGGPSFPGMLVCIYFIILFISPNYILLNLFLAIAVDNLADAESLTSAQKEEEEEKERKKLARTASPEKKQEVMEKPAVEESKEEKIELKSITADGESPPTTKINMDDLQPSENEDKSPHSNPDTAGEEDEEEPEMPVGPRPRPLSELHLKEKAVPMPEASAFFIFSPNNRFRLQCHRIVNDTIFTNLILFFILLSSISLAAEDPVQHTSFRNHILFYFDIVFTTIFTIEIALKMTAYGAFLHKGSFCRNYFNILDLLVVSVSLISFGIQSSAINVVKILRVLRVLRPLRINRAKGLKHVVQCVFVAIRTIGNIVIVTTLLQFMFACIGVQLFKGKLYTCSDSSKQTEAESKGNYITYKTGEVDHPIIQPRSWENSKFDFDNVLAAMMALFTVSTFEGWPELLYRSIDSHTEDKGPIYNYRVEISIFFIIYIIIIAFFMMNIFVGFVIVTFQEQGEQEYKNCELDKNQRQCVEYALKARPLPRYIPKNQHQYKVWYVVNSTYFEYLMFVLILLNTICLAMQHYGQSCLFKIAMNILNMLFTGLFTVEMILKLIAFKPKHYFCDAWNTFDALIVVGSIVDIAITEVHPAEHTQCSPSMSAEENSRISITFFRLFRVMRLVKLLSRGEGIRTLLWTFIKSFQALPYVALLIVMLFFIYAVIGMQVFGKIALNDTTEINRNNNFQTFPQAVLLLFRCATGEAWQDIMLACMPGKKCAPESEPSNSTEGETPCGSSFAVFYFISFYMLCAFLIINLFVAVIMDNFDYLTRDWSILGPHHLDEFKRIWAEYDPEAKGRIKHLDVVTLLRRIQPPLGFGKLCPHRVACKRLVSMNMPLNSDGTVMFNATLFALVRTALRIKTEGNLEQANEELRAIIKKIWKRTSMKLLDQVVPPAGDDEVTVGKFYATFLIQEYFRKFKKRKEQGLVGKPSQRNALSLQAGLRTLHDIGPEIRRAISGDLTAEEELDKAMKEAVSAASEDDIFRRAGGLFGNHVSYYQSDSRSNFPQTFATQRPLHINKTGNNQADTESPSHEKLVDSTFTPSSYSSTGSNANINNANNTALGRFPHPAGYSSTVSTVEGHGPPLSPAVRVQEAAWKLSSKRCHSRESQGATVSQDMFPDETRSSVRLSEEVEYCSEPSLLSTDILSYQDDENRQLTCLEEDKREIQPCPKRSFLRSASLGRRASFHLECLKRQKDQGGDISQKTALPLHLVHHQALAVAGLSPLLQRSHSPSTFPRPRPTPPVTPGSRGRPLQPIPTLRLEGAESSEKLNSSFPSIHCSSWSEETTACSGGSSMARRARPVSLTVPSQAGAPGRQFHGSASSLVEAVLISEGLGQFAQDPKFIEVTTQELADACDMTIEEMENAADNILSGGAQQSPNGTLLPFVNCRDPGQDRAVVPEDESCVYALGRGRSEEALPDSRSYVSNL
Sequence (P54290 25-944 partner limits assumed): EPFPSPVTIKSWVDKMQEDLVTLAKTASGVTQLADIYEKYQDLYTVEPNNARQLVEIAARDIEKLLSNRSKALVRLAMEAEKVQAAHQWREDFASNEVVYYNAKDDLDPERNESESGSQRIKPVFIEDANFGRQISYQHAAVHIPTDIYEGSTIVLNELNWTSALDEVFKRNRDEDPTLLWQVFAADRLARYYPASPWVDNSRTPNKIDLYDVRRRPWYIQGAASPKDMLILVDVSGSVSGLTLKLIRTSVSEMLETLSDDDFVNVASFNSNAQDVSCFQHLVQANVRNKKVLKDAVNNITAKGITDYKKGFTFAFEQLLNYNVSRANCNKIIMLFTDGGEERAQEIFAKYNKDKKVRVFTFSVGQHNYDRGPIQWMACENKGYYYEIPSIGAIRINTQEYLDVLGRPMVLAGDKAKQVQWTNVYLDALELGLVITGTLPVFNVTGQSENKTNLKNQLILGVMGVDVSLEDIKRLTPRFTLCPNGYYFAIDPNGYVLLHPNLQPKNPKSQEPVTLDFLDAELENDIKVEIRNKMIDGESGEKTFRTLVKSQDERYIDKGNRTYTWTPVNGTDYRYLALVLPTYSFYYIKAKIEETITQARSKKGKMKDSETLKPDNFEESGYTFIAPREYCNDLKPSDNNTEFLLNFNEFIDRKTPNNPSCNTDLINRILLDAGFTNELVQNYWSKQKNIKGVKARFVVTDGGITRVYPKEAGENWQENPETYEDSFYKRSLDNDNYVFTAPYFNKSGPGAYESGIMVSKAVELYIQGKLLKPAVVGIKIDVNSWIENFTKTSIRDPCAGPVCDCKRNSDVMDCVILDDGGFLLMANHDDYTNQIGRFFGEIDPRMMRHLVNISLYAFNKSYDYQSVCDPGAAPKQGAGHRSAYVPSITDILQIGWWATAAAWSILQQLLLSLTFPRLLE
Sequence (P54290 945-1091 partner limits assumed): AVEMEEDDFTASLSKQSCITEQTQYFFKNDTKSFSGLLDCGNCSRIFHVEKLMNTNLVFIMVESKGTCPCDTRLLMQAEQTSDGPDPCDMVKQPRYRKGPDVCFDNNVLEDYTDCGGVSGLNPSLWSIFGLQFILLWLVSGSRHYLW
Sequence (P54283 whole entry partner): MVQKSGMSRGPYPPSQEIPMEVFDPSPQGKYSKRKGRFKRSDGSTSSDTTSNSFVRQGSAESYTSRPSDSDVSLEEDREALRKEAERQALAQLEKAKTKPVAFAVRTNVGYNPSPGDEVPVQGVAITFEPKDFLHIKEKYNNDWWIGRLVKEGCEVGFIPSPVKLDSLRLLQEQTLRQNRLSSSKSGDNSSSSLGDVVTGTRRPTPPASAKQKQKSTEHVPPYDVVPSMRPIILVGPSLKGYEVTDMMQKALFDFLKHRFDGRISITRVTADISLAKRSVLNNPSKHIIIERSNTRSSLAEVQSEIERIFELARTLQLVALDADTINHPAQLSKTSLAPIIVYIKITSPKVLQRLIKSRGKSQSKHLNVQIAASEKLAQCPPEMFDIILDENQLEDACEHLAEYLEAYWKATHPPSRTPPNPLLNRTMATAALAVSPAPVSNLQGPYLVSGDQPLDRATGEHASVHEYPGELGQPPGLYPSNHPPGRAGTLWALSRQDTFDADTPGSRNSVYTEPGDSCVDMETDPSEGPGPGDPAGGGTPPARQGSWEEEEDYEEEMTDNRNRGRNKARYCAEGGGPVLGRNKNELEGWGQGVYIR
Quantity measured: IC50 (µM)
Report as a plain number; the unit µM is understood.

COc1ccccc1CNCC(=O)N1CCC(N(C2CC2)S(=O)(=O)c2ccc(Cl)cc2)CC1 [Compound 101]
8.1
CC(C)CC(O)C(=O)N1CCC(N(C(C)C)S(=O)(=O)c2cccc(C(F)(F)F)c2)CC1 (stereo not shown)
5.49

Read the next record carefully.
Exercise: Data request, read-out IC50, for `CC(C)N(C1CCN(C(=O)CCNc2ccc(F)cc2)CC1)S(=O)(=O)c1cccc(C(F)(F)F)c1`
Solution: 3.22
